Target: human A3 receptors (hA3) (Homo sapiens)
Construct: expressed in transfected cells; host or cells: HEK-293
Sequence (P0DMS8 1-318): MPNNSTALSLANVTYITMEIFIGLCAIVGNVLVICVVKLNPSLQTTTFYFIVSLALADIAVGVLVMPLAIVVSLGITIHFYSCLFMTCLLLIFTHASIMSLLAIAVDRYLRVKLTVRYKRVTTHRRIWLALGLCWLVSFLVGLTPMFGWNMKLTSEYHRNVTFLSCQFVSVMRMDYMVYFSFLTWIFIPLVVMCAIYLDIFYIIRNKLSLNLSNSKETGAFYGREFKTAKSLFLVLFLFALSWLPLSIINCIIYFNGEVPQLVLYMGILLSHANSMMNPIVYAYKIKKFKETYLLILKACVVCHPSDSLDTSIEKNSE
Assay: Displacement of [125I]ABA binding at human A3 receptors expressed in HEK-293 cells
Settings: Table 3; read-out: hA3 Ki or IC50
pKi: −log10 of the molar value.

{"Structure smiles": "CCCn1c(=O)c2[nH]c(-c3ccc(/C=C/C(=O)Nc4ccccc4C(C)=O)cc3)nc2n(CCC)c1=O", "pKi": 6.92}
{"Structure smiles": "CCCn1c(=O)c2[nH]c(-c3ccc(/C=C/C(=O)NN4C(=O)C(C)=C(C)C4=O)cc3)nc2n(CCC)c1=O", "pKi": 7.51}
